# test_protocol: physchem
# experimental_setup: dimethylsulphoxide, organic solvent or mixture
*1 amine or outer side, *2 acyl side, *3 side chain or, on linkers, in order; H or OH if unused. Where a SMILES comes first, the peptide text is derived from it. [ ]: non-standard residue; d: D form. ξ: configuration not given here. X1 = Cn1c(=O)ccn(C2SC(C(O)C(N[*:1])C(=O)[*:2])C(O)C2O)c1=O; ξOrn(N(OH)Ac) = CC(=O)N(O)CCCC(N)C(=O)O; ξS = NC(CO)C(=O)O
observed_property: solubility

Enquiry: Reported solubility for CC(=O)N(O)CCCC(N)C(=O)NC(CCCN(O)C(C)=O)C(=O)NC(CCCN(O)C(C)=O)C(=O)NC(CO)C(=O)NC(C(=O)O)C(O)C1SC(n2ccc(=O)n(C)c2=O)C(O)C1O (stereo not shown) [BAYi 3265 Component A] (H-[ξOrn(N(OH)Ac)][ξOrn(N(OH)Ac)][ξOrn(N(OH)Ac)][ξS][X1]-OH) : what is it?
Return: < 10000 µg/mL

All figures here come from patent US4416870A.
